Cited source for all entries: BigSolDB 2.1

# TEST_CONTEXT: in ethyl acetate, 285.65 K
MEASURE: solubility (mole fraction)
Give the value as a plain number.

Can you share its solubility (mole fraction)? I mean this compound: COC(=O)C(C)(C)N=NC(C)(C)C(=O)OC
0.558

----------
# TEST_CONTEXT: in ethanol, 275.85 K
MEASURE: solubility (mole fraction)
Give the value as a plain number.

Can you share its solubility (mole fraction)? I mean this compound: COC(=O)C(C)(C)N=NC(C)(C)C(=O)OC
0.0726

----------
# TEST_CONTEXT: in toluene, 288.05 K
MEASURE: solubility (mole fraction)
Give the value as a plain number.

Can you share its solubility (mole fraction)? I mean this compound: COC(=O)C(C)(C)N=NC(C)(C)C(=O)OC
0.597
